Numbers sourced from the METLIN SMRT retention time set (Domingo-Almenara et al. 2019).

test: gradient 5% acetonitrile 3 min, to 50% in 2 min, to 85% in 15 min, held 3 min, 100 µL/min; conditions: column: Zorbax Extend-C18 2.1 x 50 mm; eluents: water / acetonitrile, 0.1% formic acid
Measurement Name: RP-LC retention time (s)

See these solved cases before continuing.
- Molecule: "CCCNC(=O)c1c(C)sc2ccn(Cc3ccc(F)cc3)c(=O)c12"
  Measurement Name: "RP-LC retention time"
  Reading: 863
- Molecule: "COC(=O)c1cc2c(=O)n(Cc3ccccc3Cl)ccc2nc1C"
  Measurement Name: "RP-LC retention time"
  Reading: 902
- Molecule: "CCOc1ccccc1CNC(=O)C1CCCN(c2nn3c(=O)c4c(nc3s2)CCCC4)C1 (configuration not stated)"
  Measurement Name: "RP-LC retention time"
  Reading: 831
- Molecule: "Cn1c(N2CCCCS2(=O)=O)nc(C(=O)NCc2ccc(F)cc2)c(O)c1=O"
  Measurement Name: "RP-LC retention time"
  Reading: 864
- Molecule: "COc1cccc(CNC2=NCCNC23CCN(S(=O)(=O)c2ccc(C)cc2C)CC3)c1"
  Measurement Name: "RP-LC retention time"
  Reading: 747
- Molecule: "CN(CC1CCOC1)C(=O)Nc1cccc(C(F)(F)F)c1 (configuration not stated)"
  Measurement Name: "RP-LC retention time"
  Reading: 784

I. CC1CCCN(C(=O)c2cc3c(s2)N(C)CCC3)C1 (configuration not stated)
II. CCC(C(=O)NCCN(C)C)n1c2ccccc2c2cnn(C)c(=O)c21 (configuration not stated)
Could you please tell me which of these two has the higher RP-LC retention time: I or II ? Give the label under which the chosen entry appears.
I
(I: 976 s, II: 618 s)

A. C#Cc1cccc(Nc2ncnc3cc(OC)c(OCCCCCCC(=O)NO)cc23)c1
B. Cc1ccc(S(=O)(=O)c2cnc(N3CCN(c4ccccn4)CC3)nc2N)cc1
Could you please tell me which of these two has the higher RP-LC retention time: A or B ? Give the label under which the chosen entry appears.
B
(B: 1160 s, A: 707 s)
